# SYSTEM TESTED: human OGG1 enzyme (Homo sapiens)
# Sequence (O15527 whole entry): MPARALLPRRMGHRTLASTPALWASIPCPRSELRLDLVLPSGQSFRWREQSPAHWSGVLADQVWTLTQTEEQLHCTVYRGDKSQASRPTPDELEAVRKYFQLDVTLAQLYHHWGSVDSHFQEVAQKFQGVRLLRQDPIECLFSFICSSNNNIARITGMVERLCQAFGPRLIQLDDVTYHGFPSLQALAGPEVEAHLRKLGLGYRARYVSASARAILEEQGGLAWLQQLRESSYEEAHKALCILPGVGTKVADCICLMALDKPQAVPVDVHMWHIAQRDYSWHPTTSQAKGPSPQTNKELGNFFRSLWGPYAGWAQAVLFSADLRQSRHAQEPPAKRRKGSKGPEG
# ASSAY DETAILS: Differential scanning fluorimetry (DSF) thermal shift assay
# Format: binding
# EXPERIMENTAL CONTEXT: 99 μM
MEASUREMENT NAME: ∆Tm (K)
# output: bare number, implied unit K

Task: Consider the compound CN1C(=O)Cc2cc(Nc3ncnc4c(F)cccc34)ccc21 [ZINC000350560229] and give its recorded ∆Tm (K).
Result: -0.01

Task: Identify ∆Tm (K) associated with the compound Cc1[nH]c(Br)nc1-c1ccc(CC(=O)Nc2noc3c2CCCC3)cc1 [compound 21]
Result: 5.9

Task: Please list ∆Tm (K) recorded for the compound Cn1ncc(NC(=O)N[C]2COc3ccc(Cl)cc32)c1C(F)F [ZINC000337657385]
Result: -0.16

Task: Kindly indicate its recorded ∆Tm (K). Item: Cc1cc(C)n(-c2cc(F)c(CC(=O)Nc3noc4c3CCCC4)c(F)c2)n1 [compound 8]
Result: 5.4

Task: Recall and state the measured ∆Tm (K) for O=C(Cc1c(F)cccc1F)Nc1noc2c1CCCC2 [compound 6] .
Result: 1.1

Task: Give ∆Tm (K) for O=C(NCC1(O)CN(C(=O)c2cccnn2)C1)c1ccc(Cl)cc1 [ZINC000584413720]
Result: 0.65

Task: Return ∆Tm (K) for the following compound: COc1ccc([C]2CCCCCN2C(=O)Nc2noc(C)c2C)cc1 [ZINC000455661485]
Result: -0.14

Task: Fill in reported ∆Tm (K) for this entry: Cc1ccc(C(=O)NCc2nc(-c3cccnc3)no2)cc1C [ZINC001046413262]
Result: -0.07

Task: Respond only with ∆Tm (K) recorded for O=C(Cn1c(C(F)(F)F)nc2ccccc21)NCc1ccccc1 [ZINC000032814728]
Result: 0.79
